# ASSAY_PROTOCOL: HepG2 cytotoxicity, primary screen, cytotoxicity control for P. falciparum antimalarial project, cell-based, ATP luminescence (AID 2303);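 further: 0% = DMSO wells and 100% = digitonin-killed cells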
# CONDITION_LABEL: HepG2 viability, 24-48 h, at 10 µM, stronger effect = higher value
MEASUREMENT_NAME: inhibition (%)

INSERT INTO results (compound, unit_abbreviation, quantitative_result) VALUES
  ('COc1cc2nc(N(C)C3CCN(Cc4ccccc4)CC3)nc(N)c2cc1OC', '%', 19),
  ('CC(Cc1ccc(Sc2ccccc2)cc1)NCC(O)c1cccc(C(F)(F)F)c1 (stereo not given)', '%', -1),
  ('CS(=O)(=O)Nc1ccc2c(C3CCN(CC4CCN(C(=O)/C=C/c5ccc(Cl)c(Cl)c5)CC4)CC3)c[nH]c2c1', '%', 28),
  ('CC(=O)Nc1ccc(CN2CCC(N(C)c3cc(NC(=O)c4cccs4)ccn3)CC2)cc1', '%', -1),
  ('Cc1[nH]c2ccccc2c1C1=CCN(C[C@H]2C[C@@H]2C(=O)c2ccccc2)CC1', '%', 18),
  ('O=C(/C=C/c1ccc(Cl)c(Cl)c1)NCCC1CCC(N2CCC(c3c[nH]c4ccccc34)CC2)CC1 (stereo not given)', '%', 91),
  ('O=C(NCc1ccc(S(=O)(=O)N2CCC(CN3CCC(c4c[nH]c5ccccc45)CC3)CC2)s1)c1ccccc1', '%', 32),
  ('CC(=O)N(Cc1ccccc1-c1ccc(CNCCc2ccccc2)cc1)C1CCN(Cc2ccccc2)CC1', '%', 24),
  ('Cc1[nH]c2ccc(O)cc2c1C1CCN(CC2CCC(NC(=O)/C=C/c3c(Cl)cccc3Cl)CC2)CC1 (stereo not given)', '%', 25),
  ('C/C=C1\CN2CC[C@H]1C[C@H]2[C@H](O)c1ccnc2ccc(O)cc12', '%', -15);

* * *

# ASSAY_PROTOCOL: sensitizers of A549 cells to miR-34 induction, primary screen, imaging, A549 dox-inducible miR-34, nuclei and caspase counts (AID 1347080)
# CONDITION_LABEL: A549 miR-34 inducible, Hoechst nuclei count, 48 h; stronger effect = lower value
Hi! Just check whether fold change is below 1. Below gives Yes, equal or above gives No.

INSERT INTO assay_data (molecule, label_class) VALUES
  ('CC(=O)[C@H]1CCC2C3CC[C@H]4C[C@H](O)CC[C@]4(C)C3CC[C@@]21C (stereo partly drawn)', 'No'),
  ('C[C@]12CCC(O)CC1=CCC1C2CC[C@]2(C)C(=O)CCC12 (stereo partly drawn)', 'No'),
  ('NC(Cc1cc(O)c(O)cc1O)C(=O)O (stereo not drawn)', 'No'),
  ('OCC(O)[C@H]1O[C@@H]2O[C@H](C(Cl)(Cl)Cl)O[C@@H]2[C@H]1O (stereo partly drawn)', 'Yes'),
  ('CC1=C2C[C@H]3[C@@H](CC=C4C[C@@H](O)CC[C@@]43C)[C@@H]2CC[C@]12O[C@@H]1C[C@H](C)CN[C@H]1[C@H]2C', 'Yes');

* * *

Collected nuclear beta-catenin stimulation values appear next to each entry.
# ASSAY_PROTOCOL: stimulators of nuclear beta-catenin in C2C12, primary screen, imaging, WNT3A-conditioned medium, mouse C2C12, NPC library (AID 1117326)
# CONDITION_LABEL: stimulation, at 2 µM, stronger effect = higher value
MEASUREMENT_NAME: nuclear beta-catenin stimulation (%)

INSERT INTO results (molecule, quantitative_result) VALUES
  ('CCOC(=O)c1ncn2c1CN(C)C(=O)c1c(I)cccc1-2', -0.1),
  ('CC(C)NCC(O)c1ccccc1Cl (stereo unspecified)', 0.8),
  ('CC(NC(C)(C)C)C(=O)c1cccc(Cl)c1 (stereo unspecified)', 7.1),
  ('O=C1C2CC=CCC2C(=O)N1SC(Cl)(Cl)Cl (stereo unspecified)', 44.5),
  ('O=S(=O)(O)c1cc(O)ccc1O', 2.5),
  ('CC(=O)[O][Hg][c]1ccccc1', 13.2),
  ('COP(=S)(OC)Oc1ccc(Sc2ccc(OP(=S)(OC)OC)cc2)cc1', -0.8),
  ('C[C@@]12CCCCC[C@@H](Cc3ccc(O)cc31)[C@H]2N', 0.1),
  ('CCOc1cc(C=O)ccc1O', -0.8),
  ('COC(=O)c1cncn1C(C)c1ccccc1 (stereo unspecified)', 0.1),
  ('CC(C)(C)NCC(O)c1ccccc1Cl (stereo unspecified)', -0.7),
  ('O=c1[nH]c2ccccc2n1C1CCN(CCCC(c2ccc(F)cc2)c2ccc(F)cc2)CC1', 0.2),
  ('CC1=C2[C@H]3OC(=O)[C@@H](C)[C@@H]3CC[C@@]2(C)C=CC1=O', 1),
  ('COc1cccc(C(=O)CCN[C@@H](C)[C@H](O)c2ccccc2)c1', -0.6),
  ('C1CN(P2(N3CC3)=NP(N3CC3)(N3CC3)=NP(N3CC3)(N3CC3)=N2)CCO1 (stereo unspecified)', 0.7),
  ('O=C1C(I)=CC(=C(c2cc(I)c(O)c(I)c2)c2ccccc2C(=O)O)C=C1I', 1.8),
  ('NCC(O)c1ccc(O)cc1 (stereo unspecified)', 0.8),
  ('NC(=O)OCCCc1ccccc1', 0.3),
  ('C=C(C)[C@H]1CN[C@H](C(=O)O)[C@H]1CC(=O)O', 1.5),
  ('CN1C(=O)CN=C(c2ccccc2)c2cc([N+](=O)[O-])ccc21', 0.9),
  ('O=C(O)Cc1ccccc1', 0.3),
  ('C#C[C@]1(O)CC[C@H]2[C@@H]3CCC4=CC(=O)CCC4=C3C=C[C@@]21CC', 0.3),
  ('C#CCN(C)[C@H](C)Cc1ccccc1', 0.7),
  ('CC=CC1C(C(=O)OCc2c(F)c(F)c(COC)c(F)c2F)C1(C)C (stereo unspecified)', -0.3),
  ('NC(=O)CN1CCCC1=O', 1.2),
  ('CN1C(=S)CN=C(c2ccccc2)c2cc(Cl)ccc21', 3.4),
  ('NCCS[As](SCCN)c1ccc(Nc2nc(N)nc(N)n2)cc1', -0.4),
  ('CN(C)[C@@H]1C(=O)C(C(N)=O)=C(O)[C@@]2(O)C(=O)C3=C(O)c4c(O)cccc4[C@@](C)(O)[C@H]3[C@H](O)[C@@H]12', 0.1),
  ('NC(=O)c1cc([N+](=O)[O-])cc([N+](=O)[O-])c1', -1.6),
  ('COC(C)(C)CCCC(C)C/C=C/C(C)=C/C(=O)OC(C)C (stereo unspecified)', 1),
  ('CCOC(=O)C=C(C)C=CC[C@@H](C)CCCC(C)C', -0.1),
  ('CCC1(c2ccccc2)CCC(=O)NC1=O (stereo unspecified)', 0.1),
  ('CC[n+]1c(-c2ccccc2)c2cc(N)ccc2c2ccc(N)cc21', 1),
  ('O=C(NC(=O)c1c(F)cccc1F)Nc1cc(Cl)c(OC(F)(F)C(F)C(F)(F)F)cc1Cl (stereo unspecified)', 1.2),
  ('O=[N+]([O-])C(Br)(CO)CO', 0),
  ('O=c1oc2ccccc2c(O)c1C(CC(O)c1ccc(-c2ccc(Br)cc2)cc1)c1ccccc1 (stereo unspecified)', 2.6),
  ('O=[N+]([O-])c1cc(I)c(O)c(I)c1', 0.7),
  ('C[C@@H]1CN(C2CCC(C#N)(c3ccc(F)cc3)CC2)CC[C@]1(C(=O)O)c1ccccc1 (stereo partly specified)', 0.4),
  ('CC(=O)OCC1=C(C(=O)O)N2C(=O)[C@@H](N)[C@H]2SC1', 0.2),
  ('O=c1n(Cl)c(=O)n(Cl)c(=O)n1Cl', -0.3),
  ('NCc1cccnc1', 1.2);

Where these numbers come from: PubChem BioAssay
